TARGET OF ASSAY: ABHD6 (Mus musculus)
Construct: Proteomes (mouse brain membrane fraction or cell lysates); from tissue; host or cells: mouse brain membrane fraction (or unspecified cell lysates)
Sequence (Q8R2Y0 whole entry): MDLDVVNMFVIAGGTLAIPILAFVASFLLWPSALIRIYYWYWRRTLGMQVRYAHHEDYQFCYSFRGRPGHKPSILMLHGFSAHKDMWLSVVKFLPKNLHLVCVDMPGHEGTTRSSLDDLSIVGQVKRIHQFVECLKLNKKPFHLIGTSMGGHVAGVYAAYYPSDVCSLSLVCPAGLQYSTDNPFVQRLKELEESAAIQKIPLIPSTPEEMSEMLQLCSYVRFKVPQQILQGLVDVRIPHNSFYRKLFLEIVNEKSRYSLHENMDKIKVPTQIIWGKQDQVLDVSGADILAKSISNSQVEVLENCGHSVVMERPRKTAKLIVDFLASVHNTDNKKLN
ASSAY COMMENT: In vitro competitive activity-based protein profiling (mouse), ABHD6
Format: biochemical
TEST SETTINGS: mouse brain membrane fraction or cell lysates, 30 min preincubation at 37° C, FP-Rh probe
Consider the following molecules and their measured IC50 readings.

Solved entries (count: 5):
Cc1c(CN2CCCC2)cccc1CN1CCN(C(=O)OC(C(F)(F)F)C(F)(F)F)CC1 ... 100 to 1000 nM
O=C(O)C1CN(c2cc(CN3CCN(C(=O)OC(C(F)(F)F)C(F)(F)F)CC3)cc(C(F)(F)F)c2)CCO1 (stereo not shown) ... > 1000 nM
O=C(OC(C(F)(F)F)C(F)(F)F)N1CCN(Cc2ccc(C(F)(F)F)c(N3CCC(CO)CC3)c2)CC1 ... 100 to 1000 nM
CCOC(=O)C1CCCN1c1cc(CN2CCN(C(=O)OC(C(F)(F)F)C(F)(F)F)CC2)cc(C(F)(F)F)c1 (stereo not shown) ... 100 to 1000 nM
O=C(O)[C@@H]1CCCN1c1cc(CN2CCN(C(=O)OC(C(F)(F)F)C(F)(F)F)CC2)ccc1C(F)(F)F ... > 1000 nM

In: Recorded IC50 for CN(C)C(=O)C1CCN(c2cc(Cl)ccc2CN2CCN(C(=O)OC(C(F)(F)F)C(F)(F)F)CC2)CC1 , please?
Out: > 1000 nM

In: // repeat for O=C(O)C1CN(c2cc(CN3CCN(C(=O)OC(C(F)(F)F)C(F)(F)F)CC3)ccc2C(F)(F)F)CCO1 (stereo not shown) and report
Out: 100 to 1000 nM

* * *

Consider the following compounds and their measured inhibition at 5 mg/kg readings.
TARGET OF ASSAY: MAGL (Mus musculus, UniProt O35678)
Construct: Proteomes (mouse brain membrane fraction or cell lysates); from tissue; host or cells: mouse brain membrane fraction (or unspecified cell lysates)
Sequence (O35678 whole entry): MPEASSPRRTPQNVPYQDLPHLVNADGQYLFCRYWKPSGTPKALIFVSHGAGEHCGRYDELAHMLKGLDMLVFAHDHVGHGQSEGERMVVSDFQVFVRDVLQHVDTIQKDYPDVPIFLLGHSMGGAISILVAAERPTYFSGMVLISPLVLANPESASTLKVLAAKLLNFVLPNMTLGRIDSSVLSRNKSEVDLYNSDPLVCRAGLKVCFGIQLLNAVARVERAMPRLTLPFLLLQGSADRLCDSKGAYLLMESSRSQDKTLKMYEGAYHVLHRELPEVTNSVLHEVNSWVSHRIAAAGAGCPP
ASSAY COMMENT: Mouse brain proteomes from inhibitor treated mice, MAGL
Type: in vivo
TEST SETTINGS: 5 mg/kg oral gavage, C57Bl/6J mice, brain proteome 4 h after administration

In: Recorded inhibition at 5 mg/kg for O=C(OC(C(F)(F)F)C(F)(F)F)N1CCN(Cc2ccc(Cl)cc2N2CC[C@H](N3CCCCC3=O)C2)CC1 , please?
Out: < 25%

* * *

TARGET OF ASSAY: MAGL (Mus musculus, UniProt O35678)
Construct: Proteomes (mouse brain membrane fraction or cell lysates); from tissue; host or cells: mouse brain membrane fraction (or unspecified cell lysates)
ASSAY COMMENT: Mouse brain proteomes from inhibitor treated mice, MAGL
Assay type: in vivo
TEST SETTINGS: 5 mg/kg oral gavage, C57Bl/6J mice, brain proteome 4 h after administration
Consider the following compounds and their measured inhibition at 5 mg/kg readings.

Solved entries (count: 6):
O=C(O)C1CN(c2cc(C(F)(F)F)ccc2CN2CCN(C(=O)OC(C(F)(F)F)C(F)(F)F)CC2)CCO1 (stereo not shown) [Example 75] ... < 25%
O=C(OC(C(F)(F)F)C(F)(F)F)N1CCN(Cc2cccc(OC(F)(F)F)c2N2CC3CCC(C2)O3)CC1 [Example 31] ... 25 to 75%
O=C(OC(C(F)(F)F)C(F)(F)F)N1CCN(Cc2ccc(Cl)cc2N2CC[C@@H](N3CCCC3=O)C2)CC1 [Example 41] ... > 75%
O=C(OC(C(F)(F)F)C(F)(F)F)N1CCN(Cc2cccc(Cl)c2N2CC3CCC(C2)O3)CC1 [Example 57] ... > 75%
COc1c(CN2CCN(C(=O)OC(C(F)(F)F)C(F)(F)F)CC2)cccc1CN1CCC(F)(F)CC1 [Example 16] ... > 75%
O=C(OC(C(F)(F)F)C(F)(F)F)N1CCN(Cc2ccc(C(F)(F)F)cc2N2CC3CN(C4CC4)CC3C2)CC1 (stereo not shown) [Example 65] ... < 25%

Consider the additional compound presented here.
In: Recorded inhibition at 5 mg/kg for O=C(OC(C(F)(F)F)C(F)(F)F)N1CCN(Cc2ccc(Cl)cc2N2CC[C@H](N3CCCC3=O)C2)CC1 [Example 42] , please?
Out: > 75%
